Hey, just so you know, these numbers are from patent US20180362582A1.

Target: T1, rat NTS2-YFP receptor (rat, UniProt Q63384 1-416)
T1 construct: whole, on cells; Used as cell membranes of transfected DRG-F11 cells; also called rNTS2-YFP; rNTS2
T1 sequence (Q63384 whole entry, looked up): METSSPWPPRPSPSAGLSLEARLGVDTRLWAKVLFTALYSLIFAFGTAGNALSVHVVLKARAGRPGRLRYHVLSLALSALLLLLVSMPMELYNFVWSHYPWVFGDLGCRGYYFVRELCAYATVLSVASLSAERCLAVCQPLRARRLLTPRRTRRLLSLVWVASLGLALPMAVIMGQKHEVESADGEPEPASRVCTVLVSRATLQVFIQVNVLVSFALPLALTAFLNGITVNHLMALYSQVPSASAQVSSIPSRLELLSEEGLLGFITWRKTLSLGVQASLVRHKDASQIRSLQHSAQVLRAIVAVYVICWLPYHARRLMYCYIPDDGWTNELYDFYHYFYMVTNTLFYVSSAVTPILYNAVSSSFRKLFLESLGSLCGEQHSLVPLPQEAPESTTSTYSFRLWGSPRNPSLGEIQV
Test: displacement of radiolabeled neurotensin from rNTS2-YFP membranes by a single 1 µM dose
Numbered stars: 1 amine (or outer) side, 2 acyl side, 3 side chain; on linkers, the order of the positions; unused ones are H or OH. Bridge positions count the residues as written; N and C are the ends. Square brackets hold non-standard residues; d marks the D form. Ends that are not written are not given here. * marks the point of attachment. Tyr(3-All) = 3-allyl-tyrosine (allyl on ring carbon ortho to the phenol OH), C=CCc1cc(C[C@H](N[*:1])C(=O)[*:2])ccc1O[*:3]; OctenylA = alpha-methyl-octenylalanine = 2-(7-octenyl)alanine; 6‑(allylamino)hexanoyl = C=CCNCCCCCC(=O)*
measurementLabel: % displ at 1 µM (%)

binder	% displ at 1 µM [%]
{6‑(allylamino)hexanoyl}-KP[Tyr(3-All)]IL (staple (positions not given here); not fully specified (bridges), also called compound 6) [6 c[aminohex-6-enoic acid(All)KPY(All)]IL]	93
XKPXIL (residue 1 is N-pentenyl-lysine; Tyr is o-allyl-tyrosine; the two joined by ring-closing metathesis; 25 ring atoms, also called compound 10) [10 c[K(pentenyl)KPY(All)]IL]	105
XKPXIL (residue 1 is N-butenyl-lysine; Tyr is o-allyl-tyrosine; the two joined by ring-closing metathesis; 24 ring atoms, also called compound 9) [9 c[K(butenyl)KPY(All)]IL]	104
[OctenylA]KPXIL (staple 1-4; not fully specified (residue 4); printed as 3 c[OctenylAKPY(All)]IL, Diastereoisomer of compound 12; also called compound 3) [3 c[OctenylAKPY(All)]IL]	96
